Please go through the items and note down their Ki.
# TARGET_SYSTEM: 5-hydroxytryptamine receptor 1A (Homo sapiens, UniProt P08908)
# Sequence (P08908 whole entry): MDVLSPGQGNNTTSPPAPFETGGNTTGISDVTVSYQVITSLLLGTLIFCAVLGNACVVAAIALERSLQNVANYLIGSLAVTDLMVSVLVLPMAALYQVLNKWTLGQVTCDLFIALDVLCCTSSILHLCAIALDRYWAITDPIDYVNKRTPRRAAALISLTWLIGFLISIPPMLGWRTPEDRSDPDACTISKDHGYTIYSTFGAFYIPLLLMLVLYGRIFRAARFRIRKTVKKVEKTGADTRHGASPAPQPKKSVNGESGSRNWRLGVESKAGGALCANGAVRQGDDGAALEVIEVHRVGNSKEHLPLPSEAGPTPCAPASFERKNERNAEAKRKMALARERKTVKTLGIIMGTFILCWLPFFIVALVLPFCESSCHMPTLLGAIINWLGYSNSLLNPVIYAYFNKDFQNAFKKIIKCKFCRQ
# TEST_METHOD_NOTES: Binding affinity to 5HT1A receptor

// for each compound in input: emit Ki
1. O=C(O)CCCCCN1CCC(CNC(=O)c2c3n(c4ccccc24)CCCO3)CC1
2. COC(=O)CCCCCN1CCC(CNC(=O)c2c3n(c4ccccc24)CCCO3)CC1

# output
1: > 10 µM; 2: > 10 µM

----------
Assign Ki to each entry below.
# TARGET_SYSTEM: 5-hydroxytryptamine receptor 2C (Homo sapiens, UniProt P28335)
# Sequence (P28335 whole entry): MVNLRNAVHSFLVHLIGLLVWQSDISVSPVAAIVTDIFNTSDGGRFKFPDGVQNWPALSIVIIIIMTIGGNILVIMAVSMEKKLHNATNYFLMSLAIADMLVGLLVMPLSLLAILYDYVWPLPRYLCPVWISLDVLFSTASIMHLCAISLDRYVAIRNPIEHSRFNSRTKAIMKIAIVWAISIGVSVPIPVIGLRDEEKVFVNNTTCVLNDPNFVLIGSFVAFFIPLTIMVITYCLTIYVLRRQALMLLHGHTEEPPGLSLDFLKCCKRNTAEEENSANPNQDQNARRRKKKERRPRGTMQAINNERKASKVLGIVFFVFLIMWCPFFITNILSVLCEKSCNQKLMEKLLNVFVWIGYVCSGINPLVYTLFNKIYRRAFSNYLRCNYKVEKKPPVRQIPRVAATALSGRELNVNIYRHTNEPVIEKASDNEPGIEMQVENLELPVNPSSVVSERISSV

COC(=O)CCCCCN1CCC(CNC(=O)c2c3n(c4ccccc24)CCCO3)CC1 > 10 µM

# input Requested read-out Ki, target or system 5-hydroxytryptamine receptor 2C (Homo sapiens, UniProt P28335), entry `O=C(O)CCCCCN1CCC(CNC(=O)c2c3n(c4ccccc24)CCCO3)CC1`
# output > 10 µM

----------
Lab note: pKi readings collected with Sodium-dependent dopamine transporter (Homo sapiens) for the following compounds.
Sequence (Q01959 whole entry): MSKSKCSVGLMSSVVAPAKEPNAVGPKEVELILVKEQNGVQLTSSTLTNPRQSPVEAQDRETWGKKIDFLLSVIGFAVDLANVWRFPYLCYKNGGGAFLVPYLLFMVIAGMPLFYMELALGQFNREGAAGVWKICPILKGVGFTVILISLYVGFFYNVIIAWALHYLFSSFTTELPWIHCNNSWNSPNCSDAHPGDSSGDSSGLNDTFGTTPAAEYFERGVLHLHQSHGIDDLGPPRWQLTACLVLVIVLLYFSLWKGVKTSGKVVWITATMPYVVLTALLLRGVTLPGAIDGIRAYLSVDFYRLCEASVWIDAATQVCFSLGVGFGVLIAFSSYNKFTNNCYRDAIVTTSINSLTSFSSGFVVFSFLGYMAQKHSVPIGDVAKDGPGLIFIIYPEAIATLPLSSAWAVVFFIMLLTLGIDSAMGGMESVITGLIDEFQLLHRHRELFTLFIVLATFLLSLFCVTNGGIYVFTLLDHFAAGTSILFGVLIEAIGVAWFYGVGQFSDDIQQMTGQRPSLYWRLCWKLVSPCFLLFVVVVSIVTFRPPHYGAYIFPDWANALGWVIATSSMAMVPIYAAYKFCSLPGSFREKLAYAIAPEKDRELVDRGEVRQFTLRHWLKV
pKi: −log10 of the molar value.

COC(=O)CCCCCN1CCC(CNC(=O)c2c3n(c4ccccc24)CCCO3)CC1 < 5.00

# input // pKi lookup, key: `O=C(O)CCCCCN1CCC(CNC(=O)c2c3n(c4ccccc24)CCCO3)CC1`
# output < 5.00

----------
# TARGET_SYSTEM: 5-hydroxytryptamine receptor 4 (Homo sapiens, UniProt Q13639)
# Sequence (Q13639 whole entry): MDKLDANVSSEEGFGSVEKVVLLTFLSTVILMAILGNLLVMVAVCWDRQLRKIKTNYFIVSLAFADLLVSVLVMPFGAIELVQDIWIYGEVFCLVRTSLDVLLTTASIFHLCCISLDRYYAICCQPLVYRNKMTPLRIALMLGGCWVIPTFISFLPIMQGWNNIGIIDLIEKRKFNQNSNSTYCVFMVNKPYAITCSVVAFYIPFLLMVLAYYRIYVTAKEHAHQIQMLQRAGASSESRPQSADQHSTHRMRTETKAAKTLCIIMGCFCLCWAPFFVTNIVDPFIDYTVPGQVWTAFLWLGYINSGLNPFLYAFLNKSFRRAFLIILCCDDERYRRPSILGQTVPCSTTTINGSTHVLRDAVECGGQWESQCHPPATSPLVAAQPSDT
# TEST_METHOD_NOTES: Displacement of [3H]GR113808 from human 5HT4 receptor expressed in HEK293 cells by liquid scintillation counting
# Format: cell-based
pKi: −log10 of the molar value.
Param threshold (9) applies to pKi; output Condition met when value >= threshold, Condition not met when value < threshold.

O=C(O)CCCN1CCC(CNC(=O)c2c3n(c4ccccc24)CCCO3)CC1 Condition not met
CCCCN1CCC(CNC(=O)c2c3n(c4ccccc24)CCCO3)CC1 Condition met

# input Reported pKi at or above 9? `O=C(CCCCN1CCC(CNC(=O)c2c3n(c4ccccc24)CCCO3)CC1)OCc1ccccc1`
# output Condition met

# input And `COC(=O)CCCCCCCCCCCN1CCC(CNC(=O)c2c3n(c4ccccc24)CCCO3)CC1` ?
# output Condition met

# input Another molecule to look at: `O=C(O)CN1CCC(CNC(=O)c2c3n(c4ccccc24)CCCO3)CC1`
# output Condition not met

# input Then `O=C(O)CCCCN1CCC(CNC(=O)c2c3n(c4ccccc24)CCCO3)CC1` ?
# output Condition not met

----------
# TARGET_SYSTEM: 5-hydroxytryptamine receptor 4 (Homo sapiens, UniProt Q13639)
# TEST_METHOD_NOTES: Displacement of [3H]GR113808 from human 5HT4 receptor expressed in HEK293 cells by liquid scintillation counting
# Assay type: cell-based
pKi: −log10 of the molar value.
# pKi >= 10 gives satisfied, anything below gives not satisfied

O=C(CCCN1CCC(CNC(=O)c2c3n(c4ccccc24)CCCO3)CC1)OCc1ccccc1 satisfied
CC(C)(C)C(=O)OCOC(=O)c1ccc(CN2CCC(CNC(=O)c3c4n(c5ccccc35)CCCO4)CC2)cc1 not satisfied
CC(C)(C)OC(=O)CCCN1CCC(CNC(=O)c2c3n(c4ccccc24)CCCO3)CC1 not satisfied

# input # bool: pKi of `O=C(O)c1ccc(CN2CCC(CNC(=O)c3c4n(c5ccccc35)CCCO4)CC2)cc1` >= 10
# output not satisfied

----------
# TARGET_SYSTEM: UniProtKB Q13639
# TEST_METHOD_NOTES: Displacement of [3H]GR113808 from human 5HT4 receptor expressed in HEK293 cells by liquid scintillation counting
# Type: cell-based
QUANTITY_NAME: pKi
Answers are plain numbers, as −log10 of the molar value.

Check out these entries, answers already filled in.
CC(C)(C)C(=O)OCOC(=O)CCCCCN1CCC(CNC(=O)c2c3n(c4ccccc24)CCCO3)CC1 10.19
COC(=O)CCCCCN1CCC(CNC(=O)c2c3n(c4ccccc24)CCCO3)CC1 9.97

# input May I ask what pKi has been recorded for `CCOC(=O)CCCN1CCC(CNC(=O)c2c3n(c4ccccc24)CCCO3)CC1` ?
# output 9.99
